Source: patent US20230364070A1

Molecular target: pEGFR in Ba/F3 cells expressing EGFR exon 20 NPG Ins D770_N771 (Homo sapiens, UniProt P00533, INS770NPG)
Sequence (P00533 with tags, fused parts or gaps INS770NPG): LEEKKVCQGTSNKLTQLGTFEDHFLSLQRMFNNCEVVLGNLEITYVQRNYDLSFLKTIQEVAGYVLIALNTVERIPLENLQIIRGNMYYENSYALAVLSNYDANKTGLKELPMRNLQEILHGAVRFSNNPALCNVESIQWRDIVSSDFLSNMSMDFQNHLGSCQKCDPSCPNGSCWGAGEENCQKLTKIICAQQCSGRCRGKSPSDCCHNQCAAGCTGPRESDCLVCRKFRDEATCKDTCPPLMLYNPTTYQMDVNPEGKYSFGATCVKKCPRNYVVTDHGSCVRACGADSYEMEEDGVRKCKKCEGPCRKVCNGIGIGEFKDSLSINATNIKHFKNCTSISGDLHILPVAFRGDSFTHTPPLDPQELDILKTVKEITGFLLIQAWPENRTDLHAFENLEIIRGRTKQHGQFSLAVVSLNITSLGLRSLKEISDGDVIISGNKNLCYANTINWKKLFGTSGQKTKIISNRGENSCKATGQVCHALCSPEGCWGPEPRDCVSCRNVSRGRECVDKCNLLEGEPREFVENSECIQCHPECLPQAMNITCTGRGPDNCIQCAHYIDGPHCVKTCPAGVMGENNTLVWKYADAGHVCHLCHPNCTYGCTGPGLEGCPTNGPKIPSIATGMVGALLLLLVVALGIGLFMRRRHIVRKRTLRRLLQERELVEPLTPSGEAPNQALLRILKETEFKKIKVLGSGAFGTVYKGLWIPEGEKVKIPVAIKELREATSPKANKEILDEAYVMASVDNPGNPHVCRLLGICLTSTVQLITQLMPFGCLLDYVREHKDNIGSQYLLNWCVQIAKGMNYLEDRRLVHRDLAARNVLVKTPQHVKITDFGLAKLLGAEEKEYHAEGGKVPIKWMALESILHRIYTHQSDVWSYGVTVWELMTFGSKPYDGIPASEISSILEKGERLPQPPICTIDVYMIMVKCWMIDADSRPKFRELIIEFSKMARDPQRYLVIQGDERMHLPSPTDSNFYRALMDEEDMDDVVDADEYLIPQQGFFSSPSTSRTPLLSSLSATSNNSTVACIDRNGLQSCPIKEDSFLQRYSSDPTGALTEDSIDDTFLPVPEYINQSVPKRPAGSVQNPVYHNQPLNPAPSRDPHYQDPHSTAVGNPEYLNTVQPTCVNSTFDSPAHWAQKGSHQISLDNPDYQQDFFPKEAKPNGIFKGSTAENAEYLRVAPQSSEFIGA
Assay: Inhibitor activity on EGFR phosphorylation (pEGFR AlphaLISA, 2 h), Ba/F3 EGFR exon 20 NPG insertion
Details: Ba/F3 EGFR exon 20 NPG Ins D770_N771
quantityKind: IC50

- compound: "COc1c(F)cccc1Nc1c(-c2ccncc2OCc2ncc(C)cn2)[nH]c2c1C(=O)NCC2"
  quantityKind: "IC50"
  result: "< 100 nM"
- compound: "C=CC(=O)N1CCC[C@@H]1COc1cnccc1-c1[nH]c2c(c1Nc1cccc(Cl)c1OC)C(=O)NCC2 [Compound 138a]"
  quantityKind: "IC50"
  result: "< 100 nM"
- compound: "C=CC(=O)N1CCC[C@@H]1COc1cnccc1-c1[nH]c2c(c1Nc1cccc(F)c1C)C(=O)NCC2"
  quantityKind: "IC50"
  result: "< 100 nM"
- compound: "C=CC(=O)NC(C)(C)C#Cc1cnccc1-c1[nH]c2c(c1Nc1cccc(F)c1OC)C(=O)NCC2"
  quantityKind: "IC50"
  result: "< 100 nM"
- compound: "C=CC(=O)NC(C)(C)C#Cc1cnccc1-c1[nH]c2c(c1Nc1cccc(Cl)c1OC)C(=O)NCC2"
  quantityKind: "IC50"
  result: "< 100 nM"
- compound: "C=CC(=O)N1CCC[C@@]1(C)C#Cc1cnccc1-c1[nH]c2c(c1Nc1cccc(F)c1OC)C(=O)NCC2"
  quantityKind: "IC50"
  result: "< 100 nM"

What value of measured IC50 is listed for C=CC(=O)NC1(C#Cc2cnccc2-c2[nH]c3c(c2Nc2cccc(Cl)c2OC)C(=O)NCC3)CC1 ?
< 100 nM

* * *

Let's look at some molecules and their measured IC50.
Target: Ba/F3 cells with EGFR exon 20 ASV Ins V769_D770 (Homo sapiens, UniProt P00533, INS769ASV)
Assay: EGFR activity: Ba/F3 cell viability (CellTiter-Glo, 72 h), EGFR exon 20 ASV insertion
Details: EGFR exon 20 ASV Ins V769_D770, cell viability, read-out: BaF3 ASV IC50

The cases that follow already have their IC50 on record.
- molecule: "C=CC(=O)NC1(C#Cc2cnccc2-c2[nH]c3c(c2Nc2cccc(F)c2OC)C(=O)NCC3)CCOCC1"
  experimentalSystem: "Ba/F3 cells with EGFR exon 20 ASV Ins V769_D770 (Homo sapiens, UniProt P00533, INS769ASV)"
  quantityKind: "IC50"
  result: "0.1 to 1 µM"
- molecule: "C=CC(=O)N1CCN(C)C[C@H]1COc1cnccc1-c1[nH]c2c(c1Nc1cccc(F)c1OC)C(=O)NCC2"
  experimentalSystem: "Ba/F3 cells with EGFR exon 20 ASV Ins V769_D770 (Homo sapiens, UniProt P00533, INS769ASV)"
  quantityKind: "IC50"
  result: "< 0.1 µM"
- molecule: "C=CC(=O)NC(C)(C)COc1cnccc1-c1[nH]c2c(c1Nc1cccc(Cl)c1OC)C(=O)NCC2"
  experimentalSystem: "Ba/F3 cells with EGFR exon 20 ASV Ins V769_D770 (Homo sapiens, UniProt P00533, INS769ASV)"
  quantityKind: "IC50"
  result: "< 0.1 µM"
- molecule: "Cc1c(F)cccc1Nc1c(-c2ccncc2C#CC2CCOCC2)[nH]c2c1C(=O)NCC2"
  experimentalSystem: "Ba/F3 cells with EGFR exon 20 ASV Ins V769_D770 (Homo sapiens, UniProt P00533, INS769ASV)"
  quantityKind: "IC50"
  result: "0.1 to 1 µM"

Query the reported IC50 for Ba/F3 cells with EGFR exon 20 ASV Ins V769_D770 (Homo sapiens, UniProt P00533, INS769ASV); item: Cc1c(F)cccc1Nc1c(-c2ccncc2C#CC2CC2)[nH]c2c1C(=O)NCC2
0.1 to 1 µM

What about CCc1c(F)cccc1Nc1c(-c2ccncc2OC[C@@]2(C)CCN2C(=O)/C=C/CN(C)C)[nH]c2c1C(=O)NCC2 ?
< 0.1 µM

Also need COc1c(Cl)cccc1Nc1c(-c2ccncc2C#C[C@H]2CCN2C(=O)/C=C/CN(C)C)[nH]c2c1C(=O)NCC2 , thanks.
< 0.1 µM

* * *

Molecular target: pEGFR in CUTO14 cells (Homo sapiens, UniProt P00533, DUP767-769)
Construct: endogenous in cells
Sequence (P00533 with tags, fused parts or gaps DUP767-769): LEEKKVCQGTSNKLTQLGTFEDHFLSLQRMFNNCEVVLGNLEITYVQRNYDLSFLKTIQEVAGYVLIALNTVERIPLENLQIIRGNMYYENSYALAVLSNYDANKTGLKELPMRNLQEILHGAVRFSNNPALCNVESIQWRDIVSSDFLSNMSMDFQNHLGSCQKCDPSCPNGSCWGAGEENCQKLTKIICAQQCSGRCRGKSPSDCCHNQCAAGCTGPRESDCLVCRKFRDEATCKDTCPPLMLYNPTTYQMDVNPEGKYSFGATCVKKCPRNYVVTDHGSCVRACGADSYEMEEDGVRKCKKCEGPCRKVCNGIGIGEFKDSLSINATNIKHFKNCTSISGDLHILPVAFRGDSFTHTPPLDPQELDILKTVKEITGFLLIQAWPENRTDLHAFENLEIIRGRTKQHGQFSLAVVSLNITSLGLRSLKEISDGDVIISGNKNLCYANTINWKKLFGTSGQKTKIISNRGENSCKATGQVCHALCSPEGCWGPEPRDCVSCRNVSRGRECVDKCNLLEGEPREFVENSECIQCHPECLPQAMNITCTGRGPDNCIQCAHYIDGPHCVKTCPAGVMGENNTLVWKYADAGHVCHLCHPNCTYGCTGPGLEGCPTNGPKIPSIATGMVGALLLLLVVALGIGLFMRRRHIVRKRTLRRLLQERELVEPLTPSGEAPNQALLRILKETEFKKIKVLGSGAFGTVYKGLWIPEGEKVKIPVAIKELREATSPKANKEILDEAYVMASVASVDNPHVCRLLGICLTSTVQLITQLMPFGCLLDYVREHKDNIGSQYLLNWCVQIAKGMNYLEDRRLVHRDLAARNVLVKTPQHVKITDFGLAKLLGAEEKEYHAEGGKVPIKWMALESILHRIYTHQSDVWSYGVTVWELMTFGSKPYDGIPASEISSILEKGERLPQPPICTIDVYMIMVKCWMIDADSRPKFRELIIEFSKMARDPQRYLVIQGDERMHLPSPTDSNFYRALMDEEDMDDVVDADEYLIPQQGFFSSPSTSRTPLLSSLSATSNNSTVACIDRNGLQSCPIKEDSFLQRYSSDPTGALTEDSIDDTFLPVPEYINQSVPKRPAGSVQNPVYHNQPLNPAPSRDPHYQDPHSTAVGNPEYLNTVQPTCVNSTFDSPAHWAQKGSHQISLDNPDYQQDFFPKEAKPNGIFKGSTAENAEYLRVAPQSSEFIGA
Test: Inhibitor activity on EGFR phosphorylation (pEGFR AlphaLISA, 2 h), CUTO14 cells
quantityKind: IC50

- smilesText: "COc1c(F)cccc1Nc1c(-c2ccncc2C#C[C@]2(NC(=O)/C=C/CN(C)C)CCOC2)[nH]c2c1C(=O)NCC2"
  experimentalSystem: "pEGFR in CUTO14 cells (Homo sapiens, UniProt P00533, DUP767-769)"
  result: "100 to 1000 nM"

Item under review: C=CC(=O)N1CCN(C)C[C@@H]1COc1cnccc1-c1[nH]c2c(c1Nc1cccc(F)c1OC)C(=O)NCC2 . Reported IC50?
> 1000 nM

// same read-out, input: COc1c(Cl)cccc1Nc1c(-c2ccncc2C#CC2(C(F)F)CC2)[nH]c2c1C(=O)NCC2
< 100 nM

Likewise for C=CC(=O)N1CC(C)(C)[C@H]1C#Cc1cnccc1-c1[nH]c2c(c1Nc1cccc(Cl)c1OC)C(=O)NCC2 ?
< 100 nM

Similarly, C=CC(=O)N1CCC[C@H]1COc1cnccc1-c1[nH]c2c(c1Nc1cccc(F)c1C)C(=O)NCC2 ?
< 100 nM

# iterate: C=CC(=O)N1CC(C)(C)[C@H]1COc1cnccc1-c1[nH]c2c(c1Nc1cccc(Cl)c1OC)C(=O)NCC2
< 100 nM

One more molecule: C=C(F)C(=O)N1CC[C@H]1COc1cnccc1-c1[nH]c2c(c1Nc1cccc(Cl)c1OC)C(=O)NCC2
< 100 nM

* * *

Target: Ba/F3 cells with EGFR exon 20 NPG Ins D770_N771 (Homo sapiens, UniProt P00533, INS770NPG)
Assay: EGFR activity: Ba/F3 cell viability (CellTiter-Glo, 72 h), EGFR exon 20 NPG insertion
Conditions: EGFR exon 20 NPG Ins D770_N771, cell viability, read-out: BaF3 NPG IC50
Form field: IC50 (one value per entry).

Here are 10 molecules together with their reported answers.
- molecule: "C=CC(=O)NC1(C#Cc2cnccc2-c2[nH]c3c(c2Nc2cc(F)cc(Cl)c2OC)C(=O)NCC3)COC1"
  experimentalSystem: "Ba/F3 cells with EGFR exon 20 NPG Ins D770_N771 (Homo sapiens, UniProt P00533, INS770NPG)"
  quantityKind: "IC50"
  result: "< 0.1 µM"
- molecule: "COc1c(F)cccc1Nc1c(-c2ccncc2C#CC(C)(C)NC(=O)C#CCN(C)C)[nH]c2c1C(=O)NCC2"
  experimentalSystem: "Ba/F3 cells with EGFR exon 20 NPG Ins D770_N771 (Homo sapiens, UniProt P00533, INS770NPG)"
  quantityKind: "IC50"
  result: "< 0.1 µM"
- molecule: "C=CC(=O)NC1(C#Cc2cnccc2-c2[nH]c3c(c2Nc2cccc(F)c2OC)C(=O)NCC3)CN(C)C1"
  experimentalSystem: "Ba/F3 cells with EGFR exon 20 NPG Ins D770_N771 (Homo sapiens, UniProt P00533, INS770NPG)"
  quantityKind: "IC50"
  result: "0.1 to 1 µM"
- molecule: "C=CC(=O)N1CCOC[C@]1(C)C#Cc1cnccc1-c1[nH]c2c(c1Nc1cccc(Cl)c1OC)C(=O)NCC2"
  experimentalSystem: "Ba/F3 cells with EGFR exon 20 NPG Ins D770_N771 (Homo sapiens, UniProt P00533, INS770NPG)"
  quantityKind: "IC50"
  result: "< 0.1 µM"
- molecule: "C=CC(=O)N1[C@H](C#Cc2cnccc2-c2[nH]c3c(c2Nc2cccc(Cl)c2OC)C(=O)NCC3)CC[C@@H]1C"
  experimentalSystem: "Ba/F3 cells with EGFR exon 20 NPG Ins D770_N771 (Homo sapiens, UniProt P00533, INS770NPG)"
  quantityKind: "IC50"
  result: "< 0.1 µM"
- molecule: "C=CC(=O)N1[C@H]2CC[C@H](C2)[C@@H]1C#Cc1cnccc1-c1[nH]c2c(c1Nc1cccc(Cl)c1OC)C(=O)NCC2"
  experimentalSystem: "Ba/F3 cells with EGFR exon 20 NPG Ins D770_N771 (Homo sapiens, UniProt P00533, INS770NPG)"
  quantityKind: "IC50"
  result: "< 0.1 µM"
- molecule: "C=CC(=O)NC1(C#Cc2cnccc2-c2[nH]c3c(c2Nc2cccc(Cl)c2OC)C(=O)NCC3)CCOCC1"
  experimentalSystem: "Ba/F3 cells with EGFR exon 20 NPG Ins D770_N771 (Homo sapiens, UniProt P00533, INS770NPG)"
  quantityKind: "IC50"
  result: "< 0.1 µM"
- molecule: "COc1c(F)cccc1Nc1c(-c2ccncc2OCc2ncc(C)cn2)[nH]c2c1C(=O)NCC2"
  experimentalSystem: "Ba/F3 cells with EGFR exon 20 NPG Ins D770_N771 (Homo sapiens, UniProt P00533, INS770NPG)"
  quantityKind: "IC50"
  result: "< 0.1 µM"
- molecule: "CC#CC(=O)N1CC[C@]1(C)COc1cnccc1-c1[nH]c2c(c1Nc1cccc(Cl)c1OC)C(=O)NCC2"
  experimentalSystem: "Ba/F3 cells with EGFR exon 20 NPG Ins D770_N771 (Homo sapiens, UniProt P00533, INS770NPG)"
  quantityKind: "IC50"
  result: "< 0.1 µM"
- molecule: "COc1c(Cl)cccc1Nc1c(-c2ccncc2C#CC2(NC(=O)/C=C/CN(C)C)COC2)[nH]c2c1C(=O)NCC2"
  experimentalSystem: "Ba/F3 cells with EGFR exon 20 NPG Ins D770_N771 (Homo sapiens, UniProt P00533, INS770NPG)"
  quantityKind: "IC50"
  result: "0.1 to 1 µM"

Need IC50, item COc1c(F)cccc1Nc1c(-c2ccncc2OCC2CCc3nccn32)[nH]c2c1C(=O)NCC2 (centres unmarked)
> 1 µM

Please give the result for C=CC(=O)NC1(C#Cc2cnccc2-c2[nH]c3c(c2Nc2cccc(Cl)c2OC)C(=O)NCC3)CN(C)C1 too.
< 0.1 µM

Same again, this time with C=CC(=O)N1CCCC[C@@H]1COc1cnccc1-c1[nH]c2c(c1Nc1cccc(F)c1C)C(=O)NCC2
0.1 to 1 µM

Same thing, different molecule: COc1c(F)cccc1Nc1c(-c2ccncc2OCc2cnc3n2CCC3)[nH]c2c1C(=O)NCC2
> 1 µM
